As an illustration, consider measured pIC50 for molecules on TPA (Homo sapiens).
Sequence (P00750 36-562, species assumed): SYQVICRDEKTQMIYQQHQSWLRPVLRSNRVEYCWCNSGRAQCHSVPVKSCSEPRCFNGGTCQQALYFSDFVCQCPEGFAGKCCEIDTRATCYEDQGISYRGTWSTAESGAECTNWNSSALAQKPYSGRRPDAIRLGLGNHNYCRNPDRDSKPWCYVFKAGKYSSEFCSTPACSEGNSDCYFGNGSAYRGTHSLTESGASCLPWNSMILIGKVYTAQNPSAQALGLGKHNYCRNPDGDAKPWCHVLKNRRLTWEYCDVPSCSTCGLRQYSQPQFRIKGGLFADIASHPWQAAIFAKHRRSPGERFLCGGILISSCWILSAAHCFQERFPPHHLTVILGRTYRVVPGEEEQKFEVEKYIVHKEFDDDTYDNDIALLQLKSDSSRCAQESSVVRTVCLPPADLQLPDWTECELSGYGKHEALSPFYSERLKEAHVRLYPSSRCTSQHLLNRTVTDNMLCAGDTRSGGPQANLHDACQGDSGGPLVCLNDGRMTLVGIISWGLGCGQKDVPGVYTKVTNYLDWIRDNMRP
The value called pIC50 is obtained by taking minus log10 of the concentration in mol/L.

CC(=N)N1CCC(Oc2ccc3c(c2)/C(=C/c2ccc(Cl)cc2)C(=O)N3Cc2ccc3ccc(C(=N)N)cc3c2)CC1; 4.54

(Q) Retrieve pIC50 measured for "CC(=N)N1CCC(Oc2ccc3c(c2)CC(=O)N3Cc2ccc3ccc(C(=N)N)cc3c2)CC1" and print it.
(A) 4.74

(Q) Complete the entry with pIC50 for "CC(=N)N1CCC(Oc2ccc3c(c2)C(C)(C)C(=O)N3Cc2ccc3ccc(C(=N)N)cc3c2)CC1"
(A) 4.75

(Q) Supply measured pIC50 of "CC(C)=C1C(=O)N(Cc2ccc3ccc(C(=N)N)cc3c2)c2ccc(OC3CCN(C(=N)N)CC3)cc21" in your reply.
(A) 4.55

(Q) Name the recorded pIC50 of the item CC(=N)N1CCC(Oc2ccc3c(c2)C(C(C)C)C(=O)N3Cc2ccc3ccc(C(=N)N)cc3c2)CC1 (centres unmarked) in your answer.
(A) 4.74

----------
Reported values: IC50 for UniProtKB P00734, one per item.
Give a bare numeral; the unit µM is implied.

The following compounds have reported results that may help.
CC(=N)N1CCC(Oc2ccc3c(c2)/C(=C/C(=O)O)C(=O)N3Cc2ccc3ccc(C(=N)N)cc3c2)CC1; 240
CC(=N)N1CCC(Oc2ccc3c(c2)C(C)(C)C(=O)N3Cc2ccc3ccc(C(=N)N)cc3c2)CC1; 6.97
CC(C)C1C(=O)N(Cc2ccc3ccc(C(=N)N)cc3c2)c2ccc(OC3CCN(C(=N)N)CC3)cc21 (stereo not shown); 4.26

Okay, now this compound:
(Q) // output IC50; input "CC(C)=C1C(=O)N(Cc2ccc3ccc(C(=N)N)cc3c2)c2ccc(OC3CCN(C(=N)N)CC3)cc21" ; system UniProtKB P00734
(A) 19.5
